Record set of Ki for target or system Adenosine receptor A2a (Homo sapiens).

chem-smiles: CCCn1c(=O)[nH]c2nc(-c3cnn(Cc4cccc(F)c4)c3)[nH]c2c1=O
endpoint-value: 1.73 µM

The reported value for `CC(C)Cn1c(=O)[nH]c2nc(-c3cnn(Cc4noc(-c5ccc(C(F)(F)F)cc5)n4)c3)[nH]c2c1=O` in terms of Ki is > 5 µM

The reported value for `CC(C)Cn1c(=O)[nH]c2nc(-c3cnn(Cc4ccccc4)c3)[nH]c2c1=O` in terms of Ki is > 5 µM

The reported value for `CCn1c(=O)[nH]c2nc(-c3cnn(Cc4cccc(F)c4)c3)[nH]c2c1=O` in terms of Ki is > 5 µM

The reported value for `O=c1[nH]c2nc(-c3cnn(Cc4ccccc4)c3)[nH]c2c(=O)n1CC1CC1` in terms of Ki is 2.76 µM

The reported value for `O=c1[nH]c2nc(-c3cnn(Cc4noc(-c5ccc(C(F)(F)F)cc5)n4)c3)[nH]c2c(=O)n1CC1CC1` in terms of Ki is > 5 µM

* * *

# Species on record: Homo sapiens
# assay-text: Selectivity for human A2B receptor over human A2A receptor
attribute-measured: Ratio Ki

chem-smiles: CCCn1c(=O)c2[nH]c(-c3cnn(Cc4cc(-c5ccccc5)on4)c3)nc2n(CCC)c1=O
Ratio Ki: 30
//
chem-smiles: CCCn1c(=O)[nH]c2nc(-c3cnn(Cc4noc(-c5ccc(Cl)cc5)n4)c3)[nH]c2c1=O
Ratio Ki: > 700
//
chem-smiles: CCCCn1c(=O)[nH]c2nc(-c3cnn(Cc4cccc(C(F)(F)F)c4)c3)[nH]c2c1=O
Ratio Ki: > 170
//
chem-smiles: CCCn1c(=O)[nH]c2nc(-c3cnn(Cc4cc(-c5ccccc5)on4)c3)[nH]c2c1=O
Ratio Ki: > 230

The reported value for `CCCn1c(=O)[nH]c2nc(-c3cnn(Cc4cccc(C(F)(F)F)c4)c3)[nH]c2c1=O` in terms of Ratio Ki is > 620

* * *

# target: Adenosine receptor A2b (Homo sapiens)
# Sequence (P29275 whole entry): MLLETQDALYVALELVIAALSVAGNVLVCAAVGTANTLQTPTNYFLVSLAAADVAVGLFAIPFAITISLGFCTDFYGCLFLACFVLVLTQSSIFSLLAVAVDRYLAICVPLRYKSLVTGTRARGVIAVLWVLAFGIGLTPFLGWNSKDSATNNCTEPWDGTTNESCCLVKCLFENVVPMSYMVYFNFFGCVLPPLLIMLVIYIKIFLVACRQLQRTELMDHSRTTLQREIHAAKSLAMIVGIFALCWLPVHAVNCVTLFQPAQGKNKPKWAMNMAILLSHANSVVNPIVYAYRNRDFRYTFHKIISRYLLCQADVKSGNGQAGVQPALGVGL
Ki vs 10 nM: less than gives 1; not less than gives -1.

Ki strictly < 10 nM for this molecule? `CCCn1c(=O)[nH]c2nc(-c3cnn(Cc4cc(-c5ccccc5)on4)c3)[nH]c2c1=O` -1

Ki strictly < 10 nM for this molecule? `CC(C)Cn1c(=O)[nH]c2nc(-c3cnn(Cc4ccccc4)c3)[nH]c2c1=O` -1

Ki strictly < 10 nM for this molecule? `CCCn1c(=O)[nH]c2nc(-c3cnn(Cc4noc(-c5ccc(Cl)cc5)n4)c3)[nH]c2c1=O` 1

Ki strictly < 10 nM for this molecule? `CCCn1c(=O)[nH]c2nc(-c3cnn(Cc4cc(-c5ccc(Cl)cc5)on4)c3)[nH]c2c1=O` -1

Ki strictly < 10 nM for this molecule? `CCCCn1c(=O)[nH]c2nc(-c3cnn(Cc4ccccc4)c3)[nH]c2c1=O` -1

* * *

# Species on record: Homo sapiens
# assay-text: Selectivity for human A2B receptor over human A2A receptor
attribute-measured: Ratio Ki

// solved cases for Ratio Ki follow
chem-smiles: CCn1c(=O)[nH]c2nc(-c3cnn(Cc4ccccc4)c3)[nH]c2c1=O
Ratio Ki: 100
--
chem-smiles: O=c1[nH]c2nc(-c3cnn(Cc4cccc(C(F)(F)F)c4)c3)[nH]c2c(=O)n1CC1CC1
Ratio Ki: > 1600

Here is the next item to consider.
The reported value for `CC(C)Cn1c(=O)[nH]c2nc(-c3cnn(Cc4noc(-c5ccc(C(F)(F)F)cc5)n4)c3)[nH]c2c1=O` in terms of Ratio Ki is > 350

* * *

# Species: Homo sapiens
# assay-text: Selectivity for human A2B receptor over human A1 receptor
attribute-measured: Ratio Ki
// no unit string in output, number only

// solved cases for Ratio Ki follow
chem-smiles: CCCn1c(=O)c2[nH]c(-c3cnn(Cc4cccc(F)c4)c3)nc2n(CCC)c1=O
attribute-measured: Ratio Ki
endpoint-value: 13

chem-smiles: CCCn1c(=O)[nH]c2nc(-c3cnn(Cc4ccccc4)c3)[nH]c2c1=O
attribute-measured: Ratio Ki
endpoint-value: 120

chem-smiles: O=c1[nH]c2nc(-c3cnn(Cc4cccc(F)c4)c3)[nH]c2c(=O)n1CC1CC1
attribute-measured: Ratio Ki
endpoint-value: 42

Here is the next item to consider.
The reported value for `CCCn1c(=O)c2[nH]c(-c3cnn(Cc4cc(-c5ccccc5)on4)c3)nc2n(CCC)c1=O` in terms of Ratio Ki is 110

* * *

# Organism: Homo sapiens
# assay-text: Selectivity for human A2B receptor over human A1 receptor
attribute-measured: Ratio Ki
// no unit string in output, number only

// solved cases for Ratio Ki follow
chem-smiles: CCn1c(=O)[nH]c2nc(-c3cnn(Cc4ccccc4)c3)[nH]c2c1=O
endpoint-value: 150
--
chem-smiles: CCCCn1c(=O)[nH]c2nc(-c3cnn(Cc4cccc(F)c4)c3)[nH]c2c1=O
endpoint-value: 230
--
chem-smiles: CCCn1c(=O)c2[nH]c(-c3cnn(Cc4noc(-c5ccccc5)n4)c3)nc2n(CCC)c1=O
endpoint-value: 50
--
chem-smiles: CCCn1c(=O)[nH]c2nc(-c3cnn(Cc4cccc(F)c4)c3)[nH]c2c1=O
endpoint-value: 160
--
chem-smiles: CCCn1c(=O)[nH]c2nc(-c3cnn(Cc4noc(-c5ccc(C(F)(F)F)cc5)n4)c3)[nH]c2c1=O
endpoint-value: 90
--
chem-smiles: CCCn1c(=O)c2[nH]c(-c3cnn(Cc4ccccc4)c3)nc2n(CCC)c1=O
endpoint-value: 7

The reported value for `CCCn1c(=O)c2[nH]c(-c3cnn(Cc4cccc(C(F)(F)F)c4)c3)nc2n(CCC)c1=O` in terms of Ratio Ki is 12

The reported value for `O=c1[nH]c2nc(-c3cnn(Cc4ccccc4)c3)[nH]c2c(=O)n1CC1CC1` in terms of Ratio Ki is 550

The reported value for `CCCCn1c(=O)[nH]c2nc(-c3cnn(Cc4ccccc4)c3)[nH]c2c1=O` in terms of Ratio Ki is 150

* * *

Protein target, amino acids: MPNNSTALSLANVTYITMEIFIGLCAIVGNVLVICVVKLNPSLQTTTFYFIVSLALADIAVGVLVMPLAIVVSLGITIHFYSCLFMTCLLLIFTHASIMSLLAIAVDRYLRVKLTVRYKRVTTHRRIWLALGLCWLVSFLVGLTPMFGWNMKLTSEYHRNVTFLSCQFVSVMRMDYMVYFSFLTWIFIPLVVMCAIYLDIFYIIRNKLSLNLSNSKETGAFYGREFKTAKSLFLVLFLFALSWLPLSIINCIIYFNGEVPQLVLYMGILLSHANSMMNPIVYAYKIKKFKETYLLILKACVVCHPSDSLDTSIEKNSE
pKi: −log10 of the molar value.
attribute-measured: pKi

// solved cases for pKi follow
chem-smiles: CCCn1c(=O)[nH]c2nc(-c3cnn(Cc4cc(-c5ccccc5)on4)c3)[nH]c2c1=O
pKi: < 5.05

chem-smiles: CCCn1c(=O)[nH]c2nc(-c3cnn(Cc4cccc(C(F)(F)F)c4)c3)[nH]c2c1=O
pKi: 6.15

The reported value for `O=c1[nH]c2nc(-c3cnn(Cc4cc(-c5ccc(C(F)(F)F)cc5)on4)c3)[nH]c2c(=O)n1CC1CC1` in terms of pKi is < 5.05

The reported value for `CCCn1c(=O)[nH]c2nc(-c3cnn(Cc4noc(-c5ccc(Cl)cc5)n4)c3)[nH]c2c1=O` in terms of pKi is < 5.05

* * *

# Species on record: Homo sapiens
# assay-text: Selectivity for human A2B receptor over human A2A receptor
attribute-measured: Ratio Ki

// solved cases for Ratio Ki follow
chem-smiles: CCCn1c(=O)[nH]c2nc(-c3cnn(Cc4ccccc4)c3)[nH]c2c1=O
Ratio Ki: > 380
//
chem-smiles: CCCn1c(=O)[nH]c2nc(-c3cnn(Cc4cc(-c5ccc(Cl)cc5)on4)c3)[nH]c2c1=O
Ratio Ki: > 30

Here is the next item to consider.
The reported value for `CC(C)Cn1c(=O)[nH]c2nc(-c3cnn(Cc4ccccc4)c3)[nH]c2c1=O` in terms of Ratio Ki is > 380

* * *

# Species on record: Homo sapiens
# assay-text: Selectivity for human A2B receptor over human A3 receptor
List of Ratio Ki values.
// no unit string in output, number only

// solved cases for Ratio Ki follow
chem-smiles: O=c1[nH]c2nc(-c3cnn(Cc4ccccc4)c3)[nH]c2c(=O)n1CC1CC1
Ratio Ki: 30

chem-smiles: CCCn1c(=O)c2[nH]c(-c3cnn(Cc4noc(-c5ccccc5)n4)c3)nc2n(CCC)c1=O
Ratio Ki: 30

The reported value for `CCn1c(=O)[nH]c2nc(-c3cnn(Cc4ccccc4)c3)[nH]c2c1=O` in terms of Ratio Ki is 40

* * *

# Organism: Homo sapiens
# assay-text: Selectivity for human A2B receptor over human A2A receptor
List of Ratio Ki values.

// solved cases for Ratio Ki follow
chem-smiles: O=c1[nH]c2nc(-c3cnn(Cc4cccc(F)c4)c3)[nH]c2c(=O)n1CC1CC1
Ratio Ki: 20
//
chem-smiles: CCCCn1c(=O)[nH]c2nc(-c3cnn(Cc4cccc(F)c4)c3)[nH]c2c1=O
Ratio Ki: > 280
//
chem-smiles: CCn1c(=O)[nH]c2nc(-c3cnn(Cc4cccc(C(F)(F)F)c4)c3)[nH]c2c1=O
Ratio Ki: > 830

The reported value for `O=c1[nH]c2nc(-c3cnn(Cc4ccccc4)c3)[nH]c2c(=O)n1CC1CC1` in terms of Ratio Ki is 460

The reported value for `CCCCn1c(=O)[nH]c2nc(-c3cnn(Cc4noc(-c5ccc(Cl)cc5)n4)c3)[nH]c2c1=O` in terms of Ratio Ki is > 210
